tested_on: human glucagon receptor (human) (UniProt P47871)
Sequence (P47871 26-477): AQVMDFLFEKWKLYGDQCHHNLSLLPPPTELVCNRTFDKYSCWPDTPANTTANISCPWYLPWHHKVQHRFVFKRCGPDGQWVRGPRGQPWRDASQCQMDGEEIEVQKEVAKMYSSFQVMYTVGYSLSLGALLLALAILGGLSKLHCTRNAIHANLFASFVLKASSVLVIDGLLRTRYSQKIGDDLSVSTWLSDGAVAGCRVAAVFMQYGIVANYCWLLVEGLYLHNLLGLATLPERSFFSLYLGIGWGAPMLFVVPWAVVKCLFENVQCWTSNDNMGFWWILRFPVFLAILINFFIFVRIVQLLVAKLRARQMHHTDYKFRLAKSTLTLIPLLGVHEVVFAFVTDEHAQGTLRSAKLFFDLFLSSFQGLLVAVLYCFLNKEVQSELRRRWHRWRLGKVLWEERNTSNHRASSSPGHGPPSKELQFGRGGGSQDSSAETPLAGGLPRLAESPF
assay_name: cell-based or functional assay
Starred links: 1 amine or outer side, 2 acyl side, 3 side chain; linkers in the order of their positions; H or OH if unused. Non-standard residues stand in square brackets, D forms with d. Groups on a side chain read outwards from the residue. No end group written: not given here. *: point of attachment. C20 diacid = O=C(O)CCCCCCCCCCCCCCCCCCC(=O)*; αMePhe(2-F) = C[C@](N)(Cc1ccccc1F)C(=O)O; γGlu = O=C(O)[C@H](CCC(=O)[*:2])N[*:1]; αMeL = CC(C)C[C@](C)(N)C(=O)O; Orn = NCCC[C@H](N)C(=O)O; AEEA = NCCOCCOCC(=O)O; Aib = CC(C)(N)C(=O)O
Outcome: 1.0 for cAMP Rel EC50 (1% HSA) of at least 1000 nM; 0.0 for anything lower.

Solved entries (count: 8):
{"binder": "YXQGTXTSDXXIXLDXKAQXEFIEXLIEGGPSSGEPPPTGE (Non-natural residues; K acylated AEEA-γGlu-C18 diacid; C-terminal amide; synthetic construct; SITE 2: note = 2-Aminoisobutyric Acid; SITE 6: note = alpha-methyl-2-fluoro-L-phenylalanine; SITE 10: note = 3-(4-Pyridyl)-L-alanine; SITE 11: note = alpha-methyl-L-serine; SITE 13: note = alpha-methyl-leucine; SITE 16: note = L-ornithine; SITE 17: note = Lysine is chemically mo) [Example 1143]", "label_class": 0.0}
{"binder": "YXQGTFTSDXSQXLDXKAQXQFIEXLIAGGPSSGAPPPSGSEEE (Aib, 4Pal, Orn, Me4Pal, alpha-methyl-Tyr, lipidated Lys, amide; synthetic construct; SITE 2: note = 2-Aminoisobutyric Acid; SITE 10: note = 3-(4-Pyridyl)-L-alanine; SITE 13: note = alpha-methyl-leucine; SITE 16: note = L-ornithine; SITE 17: note = Lysine is chemically modified through conjugation of the epsilon-amino group of the Lysine side chain with D-Glutami) [Example 1081]", "label_class": 1.0}
{"binder": "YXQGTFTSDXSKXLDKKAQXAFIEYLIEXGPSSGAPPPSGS (non-natural residues; (γGlu)2-C18 diacid on Lys; C-terminal amide; synthetic construct; SITE 2: note = 2-Aminoisobutyric Acid; SITE 10: note = 3-(4-Pyridyl)-L-alanine; SITE 13: note = alpha-methyl-leucine; SITE 17: note = Lysine is chemically modified through conjugation of the epsilon-amino group of the Lysine side chain with (gamma-Glu)2-CO-(CH2)16-CO2H; SITE 20:) [Example 907]", "label_class": 1.0}
{"binder": "Y[Aib]QGT[αMePhe(2-F)]TSDYSKLLDKIAQK([AEEA-γGlu-C20 diacid])[Orn]FIEWLIEGGPSSGEPPPSEG-NH2 [Example 310]", "label_class": 1.0}
{"binder": "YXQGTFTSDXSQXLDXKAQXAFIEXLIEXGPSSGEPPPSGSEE (non-natural residues, C18 diacid-(γGlu)2 acyl on K, C-terminal amide; synthetic construct; SITE 2: note = 2-Aminoisobutyric Acid; SITE 10: note = 3-(4-Pyridyl)-L-alanine; SITE 13: note = alpha-methyl-leucine; SITE 16: note = L-ornithine; SITE 17: note = Lysine is chemically modified through conjugation of the epsilon-amino group of the Lysine side chain with (gamma-Gl)) [Example 1093]", "label_class": 0.0}
{"binder": "YXQGTXTSDXXIXLDXKAAXEFIEXLIEGGPSSGEPPPSGTE (synthetic construct; SITE 2: note = 2-Aminoisobutyric Acid; SITE 6: note = alpha-methyl-2-fluoro-L-phenylalanine; SITE 10: note = 3-(4-Pyridyl)-L-alanine; SITE 11: note = alpha-methyl-L-serine; SITE 13: note = alpha-methyl-leucine; SITE 16: note = L-ornithine; SITE 17: note = Lysine is chemically mo) [Example 719]", "label_class": 0.0}
{"binder": "YXQGTXTSDXXIXLDXKAQXXFIEYLLEGGPSSGEPPPSGTE (synthetic construct; SITE 2: note = 2-Aminoisobutyric Acid; SITE 6: note = alpha-methyl-2-fluoro-L-phenylalanine; SITE 10: note = 3-(4-Pyridyl)-L-alanine; SITE 11: note = alpha-methyl-L-serine; SITE 13: note = alpha-methyl-leucine; SITE 16: note = L-ornithine; SITE 17: note = Lysine is chemically mo) [Example 532]", "label_class": 0.0}
{"binder": "YXQGTXTSDXSILLDXKAQXAFIEXLEEGGPSSGAPPPSGTGE (synthetic construct; SITE 2: note = 2-Aminoisobutyric Acid; SITE 6: note = alpha-methyl-2-fluoro-L-phenylalanine; SITE 10: note = 3-(4-Pyridyl)-L-alanine; SITE 16: note = L-ornithine; SITE 17: note = Lysine is chemically modified through conjugation of the epsilon-amino group of the Lysine side chai) [Example 665]", "label_class": 0.0}

**Q:** API: above_or_equal(metric=cAMP Rel EC50 (1% HSA), cutoff=1000 nM) for item Y[Aib]QGTFTSDYSI[αMeL]LDKQAAKAFVEWLLAGGPSSGEPPPSEG-NH2 (not fully specified (residue 20)) [Example 305]
**A:** 1.0

**Q:** Test whether the binder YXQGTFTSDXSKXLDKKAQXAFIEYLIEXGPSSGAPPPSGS (non-natural residues, acylated Lys, C-terminal amide; synthetic construct; SITE 2: note = 2-Aminoisobutyric Acid; SITE 10: note = 3-(4-Pyridyl)-L-alanine; SITE 13: note = alpha-methyl-leucine; SITE 17: note = Lysine is chemically modified through conjugation of the epsilon-amino group of the Lysine side chain with (2-[2-(2-Amino-ethoxy)-ethoxy]-acetyl)) [Example 915] records cAMP Rel EC50 (1% HSA) of 1000 nM or higher.
**A:** 0.0

**Q:** Please check the record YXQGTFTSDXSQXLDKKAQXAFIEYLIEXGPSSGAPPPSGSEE (acylated Lys γGlu-(e)2-C18 diacid; non-natural residues; C-terminal amide; synthetic construct; SITE 2: note = 2-Aminoisobutyric Acid; SITE 10: note = 3-(4-Pyridyl)-L-alanine; SITE 13: note = alpha-methyl-leucine; SITE 17: note = Lysine is chemically modified through conjugation of the epsilon-amino group of the Lysine side chain with (gamma-Glu)-(D-Glutamic acid)2-CO-(CH2)) [Example 930] and state if its cAMP Rel EC50 (1% HSA) is at or above 1000 nM.
**A:** 1.0
